# target system: TNKS2 ARC4 (488–649) (Homo sapiens)
# Construct: The cell was filled with TNKS2 ARC4 (488–649); His6-GST (cleaved yes); made in house; host or cells: E. coli BL21-CodonPlus (DE3)-RIL
# Sequence (Q9H2K2 488-649): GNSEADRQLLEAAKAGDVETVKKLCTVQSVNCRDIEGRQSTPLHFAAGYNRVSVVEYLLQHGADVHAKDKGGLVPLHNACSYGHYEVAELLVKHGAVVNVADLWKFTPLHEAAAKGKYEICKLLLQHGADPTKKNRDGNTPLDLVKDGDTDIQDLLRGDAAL
# measurement protocol: Isothermal titration calorimetry (ITC)
# Assay type: binding
# measurement conditions: compound 5 mM into ARC4 200 μM, 1% DMSO, global analysis n = 5
quantity: pKd
Recall that pKd is obtained by taking minus log10 of the concentration measured in molar.

Bench note: what pKd did "O=C(NCc1ccco1)c1ccc2nccnc2c1" show?
2.92

----------
# target system: TNKS2 ARC4 (488–649) (Homo sapiens)
# Construct: The cell was filled with TNKS2 ARC4 (488–649); His6-GST (cleaved yes); made in house; host or cells: E. coli BL21-CodonPlus (DE3)-RIL
# Sequence (Q9H2K2 488-649): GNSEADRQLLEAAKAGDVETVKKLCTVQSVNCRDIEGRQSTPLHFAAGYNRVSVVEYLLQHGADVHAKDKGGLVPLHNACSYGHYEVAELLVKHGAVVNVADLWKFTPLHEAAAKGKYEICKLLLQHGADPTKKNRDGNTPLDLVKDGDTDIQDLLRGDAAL
# measurement protocol: Protein-observed 1H-15N HSQC NMR titration (chemical shift perturbation)
# Type: binding
# measurement conditions: TNKS2 ARC4 300 μM, fragment up to 4800 μM, 5% DMSO; read-out: NMR Kd (apparent, mean of shifting peaks)
# Experimental: We next tested validated hits from both the DSF and NMR screens against TNKS2 ARC4 using protein-observed NMR. […] Peaks that shifted were picked manually in each spectrum. The chemical shifts for each peak were measured and exported into Microsoft Excel, where the change in chemical shift from baseline was calculated for hydrogen and nitrogen shifts. The average Euclidean distance shifted (d) was then calculated using Eq. 2, weighting the different nuclei:2 d=√{1/2[δH2+(α.δN2)]},whereα=0.14 […]
quantity: Kd (µM)
Express it in µM; write the number only.

Bench note: what Kd did "O=C(NCc1ccco1)c1ccc2nccnc2c1" show?
1050
